# Tested on: M. tuberculosis LAM 9
# Test protocol: Spot culture growth inhibition assay (SPOTi), MIC
# Assay type: cell-based, Mycobacterium tuberculosis
# Condition info: Mycobacterium tuberculosis, LAM9; multiresistant to isoniazid and rifampicin
Catalogue of MIC readings, one per entry.
Numeric answer only, unit µM assumed.

Answered cases to consult:
Q: // output MIC; input CC(/C=C/c1cc2cc(C)ccc2[nH]c1=O)=N\NC(N)=S [Compound 11b] ; system M. tuberculosis LAM 9
Ans: 16.6

Q: Enter MIC (test system M. tuberculosis LAM 9) for CC(/C=C/c1cc2cc(Br)ccc2[nH]c1=O)=N\NC(N)=S [Compound 11e]
Ans: 2.74

Q: Given CC(/C=C/c1cc2ccc(Cl)cc2[nH]c1=O)=N\NC(N)=S [Compound 11d] , report its MIC on M. tuberculosis LAM 9.
Ans: 3.12

Next molecule, MIC to be filled in.
Q: Fill in: MIC on M. tuberculosis LAM 9, entry CC(/C=C/c1cc2cccc(C)c2[nH]c1=O)=N\NC(N)=S [Compound 11c]
Ans: 3.29
